# credit: ChEMBL document CHEMBL3301458

- ASSAYED SYSTEM: hERG (Kv11.1, KCNH2) (Homo sapiens, UniProt Q12809)
- Sequence (Q12809 whole entry): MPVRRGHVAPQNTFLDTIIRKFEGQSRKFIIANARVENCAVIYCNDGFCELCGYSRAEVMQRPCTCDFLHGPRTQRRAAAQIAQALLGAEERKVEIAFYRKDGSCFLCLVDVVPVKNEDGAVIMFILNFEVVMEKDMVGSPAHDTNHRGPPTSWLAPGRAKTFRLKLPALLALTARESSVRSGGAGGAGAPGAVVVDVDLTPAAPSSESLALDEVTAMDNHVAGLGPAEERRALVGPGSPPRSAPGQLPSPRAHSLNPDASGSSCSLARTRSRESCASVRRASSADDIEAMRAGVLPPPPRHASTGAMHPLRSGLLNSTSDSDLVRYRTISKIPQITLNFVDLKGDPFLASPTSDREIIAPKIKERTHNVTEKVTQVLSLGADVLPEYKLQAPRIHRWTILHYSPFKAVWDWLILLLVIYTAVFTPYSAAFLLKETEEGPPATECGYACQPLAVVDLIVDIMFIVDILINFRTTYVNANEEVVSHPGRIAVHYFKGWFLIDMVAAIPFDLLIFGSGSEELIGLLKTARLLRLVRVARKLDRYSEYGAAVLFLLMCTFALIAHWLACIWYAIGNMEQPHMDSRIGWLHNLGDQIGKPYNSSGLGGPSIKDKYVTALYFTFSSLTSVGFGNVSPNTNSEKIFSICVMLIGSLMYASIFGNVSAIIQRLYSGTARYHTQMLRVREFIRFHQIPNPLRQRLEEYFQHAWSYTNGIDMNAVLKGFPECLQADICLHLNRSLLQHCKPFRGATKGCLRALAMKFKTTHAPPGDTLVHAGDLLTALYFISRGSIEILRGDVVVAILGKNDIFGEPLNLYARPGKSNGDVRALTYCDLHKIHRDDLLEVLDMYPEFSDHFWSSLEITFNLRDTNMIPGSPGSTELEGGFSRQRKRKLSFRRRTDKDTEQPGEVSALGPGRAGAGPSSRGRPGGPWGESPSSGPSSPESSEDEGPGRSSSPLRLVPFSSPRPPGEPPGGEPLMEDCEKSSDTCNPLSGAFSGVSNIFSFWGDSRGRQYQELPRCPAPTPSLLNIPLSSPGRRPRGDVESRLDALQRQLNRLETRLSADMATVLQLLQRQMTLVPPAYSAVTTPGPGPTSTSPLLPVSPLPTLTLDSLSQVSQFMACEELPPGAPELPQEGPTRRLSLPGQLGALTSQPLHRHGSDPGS
- PROTOCOL DESCRIPTION: in vitro
- Description: MMV: Malaria Box compounds were tested for inhibition of the human ether a go-go related gene (hERG), Kv11.1 channel, using IonWorks 384-well patch clamp electrophysiology at 11.1uM (3 independent assay plates up to 12 cells per concentration).
Tick YES if inhibition at 11.1 µM is 60% or greater. Tick NO if inhibition at 11.1 µM is less than 60%.

Consider the following illustrative entries.
# COMPOUND, CLASS ASSIGNMENT
records = [
    ("O=C(Nc1ccc(-c2nc3cc(NC(=O)c4ccc(Cl)cc4)ccc3[nH]2)cc1)c1ccc(Cl)cc1", "NO"),
    ("COC(=O)c1ccc(C2C3=C(O)CC(c4ccc(F)cc4)CC3=Nc3ccccc3N2C(=O)c2ccccc2)cc1 (stereo not given)", "YES"),
    ("O=C(Nc1ccc(Cl)cc1)N1CCN(c2ccc3nncn3n2)CC1", "NO"),
]

**Q:** Quick check, inhibition at 11.1 µM >= 60%? Cc1ccc(C)c(-c2csc(Nc3ccc(C)c(C)c3)n2)c1
**A:** YES

**Q:** Quick check, inhibition at 11.1 µM >= 60%? CC(C)(C)CC(C)(C)NCC(O)COc1ccc2c(c1)CCC2 (stereo not given)
**A:** YES

**Q:** Quick check, inhibition at 11.1 µM >= 60%? Oc1ccc(Br)cc1CN1CCN(Cc2ccc(Cl)cc2)CC1
**A:** NO

**Q:** Quick check, inhibition at 11.1 µM >= 60%? O=C(Nc1cccc(-c2nc3ccccc3[nH]2)c1)c1cccc(NC(=O)c2ccco2)c1
**A:** NO

**Q:** Quick check, inhibition at 11.1 µM >= 60%? COc1ccc(C(=O)Nc2nonc2-c2ccc(OC)c(OC)c2)cc1Cl
**A:** NO

**Q:** Quick check, inhibition at 11.1 µM >= 60%? CCOC(=O)c1c(C)n(-c2ccc(Cl)cc2)c2ccc(OC(=O)C=Cc3ccccc3)cc12
**A:** NO

**Q:** Quick check, inhibition at 11.1 µM >= 60%? COc1ccc(C(=O)Nc2ccc(Cl)cc2C(=O)Nc2ccncc2)cc1
**A:** NO

* * *

- ASSAYED SYSTEM: hERG (Kv11.1, KCNH2) (Homo sapiens)
- PROTOCOL DESCRIPTION: in vitro
PROPERTY NAME: inhibition at 11.1 µM (%)
Could you give me the number in %? Just the number is fine.

// below: answered compounds
# COMPOUND, inhibition at 11.1 µM / %
rows = [
    ("COc1cc(C(=O)Nc2ccc(-c3nc4ccccc4[nH]3)cc2)cc(OC)c1OC", 17),
    ("O=C(Nc1ccc(C23CC4CC(CC(c5ccccc5)(C4)C2)C3)cc1)c1cccs1", 3),
    ("CCOc1c(Cl)cc(CNC(C)C(O)c2ccccc2)cc1OC (stereo not given)", 39),
    ("COc1ccc(C2C(C(=O)Nc3cccc(OC)c3)c3ccccc3C(=O)N2C2CCCCC2)cc1 (stereo not given)", 70),
    ("CCOc1ccc(Nc2c3ccccc3nc3ccccc23)cc1", 112),
    ("CCOc1ccccc1NC(=O)CN1CCN(C(=O)c2ccco2)CC1", 35),
]

**Q:** I would be grateful if you could share the reported inhibition at 11.1 µM for COc1cc(SC)ccc1C(=O)N1CCCC(C)C1 (stereo not given) .
**A:** 8

**Q:** I would be grateful if you could share the reported inhibition at 11.1 µM for Cc1sc(NC(=O)c2ccco2)c(C(c2cccnc2)N2CCC(Cc3ccccc3)CC2)c1C (stereo not given) .
**A:** 9

**Q:** I would be grateful if you could share the reported inhibition at 11.1 µM for Cc1cc(C)c2c(c1)OCN(Cc1ccccc1Cl)C2 .
**A:** 88

**Q:** I would be grateful if you could share the reported inhibition at 11.1 µM for Cc1ccc2nc(C)cc(Nc3cccc(C(F)(F)F)c3)c2c1 .
**A:** 106

**Q:** I would be grateful if you could share the reported inhibition at 11.1 µM for COc1ccc(-c2nonc2NC(=O)c2cccc(Cl)c2)cc1OC .
**A:** -4

**Q:** I would be grateful if you could share the reported inhibition at 11.1 µM for O=C(NCCCN1CCC(N2CCCCC2)CC1)C1=Cc2cc(Br)ccc2OC1 .
**A:** 89

**Q:** I would be grateful if you could share the reported inhibition at 11.1 µM for Oc1ccc(C(=C(Cl)Cl)c2ccc(O)cc2)cc1 .
**A:** 15

**Q:** I would be grateful if you could share the reported inhibition at 11.1 µM for CC(C)(C)c1ccc(C(=O)Nc2c3c(nn2-c2cccc(Cl)c2)CSC3)cc1 .
**A:** 0

**Q:** I would be grateful if you could share the reported inhibition at 11.1 µM for COc1ccc(NC(=O)C2c3ccccc3C(=O)N(CC(C)C)C2c2cccs2)cc1Cl (stereo not given) .
**A:** 24

**Q:** I would be grateful if you could share the reported inhibition at 11.1 µM for CCOc1ccccc1CN1CCc2nc3cc(C(C)(C)C)nn3c(O)c2C1 .
**A:** 58

**Q:** I would be grateful if you could share the reported inhibition at 11.1 µM for Cc1ccc(OCCCCCCNCCO)c(C)c1 .
**A:** 21

**Q:** I would be grateful if you could share the reported inhibition at 11.1 µM for CCc1c(C)c(=N)c2ccccc2n1C .
**A:** 11

**Q:** I would be grateful if you could share the reported inhibition at 11.1 µM for O=C1c2ccc3c4c(ccc(c24)C(=O)N1CCCCO)C(=O)N(CCCCO)C3=O .
**A:** 37

**Q:** I would be grateful if you could share the reported inhibition at 11.1 µM for CN(C)c1ccc(-c2nc3cc(N)ccc3[nH]2)cc1 .
**A:** 36

**Q:** I would be grateful if you could share the reported inhibition at 11.1 µM for Cc1c(C)n(Cc2ccc(F)cc2)c2ccc(C(=O)NCc3ccco3)cc12 .
**A:** 5

**Q:** I would be grateful if you could share the reported inhibition at 11.1 µM for CC(C)(C)c1ccc(O)c(CNC2CCCCC2)c1 .
**A:** 35

**Q:** I would be grateful if you could share the reported inhibition at 11.1 µM for COc1ccc(CCN2CCC(CN(C)Cc3cnn(-c4ccccc4)c3)CC2)cc1 .
**A:** 99

**Q:** I would be grateful if you could share the reported inhibition at 11.1 µM for COCCNC(=O)c1ccc(OC2CCN(Cc3ccc(F)c(F)c3)CC2)c(Cl)c1 .
**A:** 68

**Q:** I would be grateful if you could share the reported inhibition at 11.1 µM for O=C(O)C1Cc2c([nH]c3ccccc23)C(c2ccc(Cl)cc2Cl)N1 (stereo not given) .
**A:** 34

**Q:** I would be grateful if you could share the reported inhibition at 11.1 µM for COc1cc2c(cc1OC)C1=NNC(=O)C1=NC(C)(C)C2 .
**A:** 11

**Q:** I would be grateful if you could share the reported inhibition at 11.1 µM for C=C(C)CCC(C)N1CCC(N2CCC(C(=O)NCCc3ccccc3)CC2)CC1 (stereo not given) .
**A:** 71

**Q:** I would be grateful if you could share the reported inhibition at 11.1 µM for Cc1cc(NC(=O)c2ccc(-c3ccccc3)cc2)no1 .
**A:** 12

**Q:** I would be grateful if you could share the reported inhibition at 11.1 µM for CCCCNCC(O)(c1ccc(Cl)cc1)c1ccc(Cl)cc1 .
**A:** 95

**Q:** I would be grateful if you could share the reported inhibition at 11.1 µM for COc1ccc(C(=O)NC(c2ccc(Cl)cc2Cl)c2cc(Cl)c3cccnc3c2O)cc1 (stereo not given) .
**A:** -12

* * *

- ASSAYED SYSTEM: hERG (Kv11.1, KCNH2) (Homo sapiens, UniProt Q12809)
- PROTOCOL DESCRIPTION: in vitro
- Description: MMV: Malaria Box compounds were tested for inhibition of the human ether a go-go related gene (hERG), Kv11.1 channel, using IonWorks 384-well patch clamp electrophysiology at 1.1uM (3 independent assay plates up to 12 cells per concentration).
# inhibition at 1.1 µM per record follows
Could you give me the number in %? Just the number is fine.

# COMPOUND, ASSAYED SYSTEM, OUTPUT UNIT, inhibition at 1.1 µM
rows = [
    ("CC(O)(c1ccc(Cl)cc1)C(CN1CCCCC1)c1ccccc1 (centres undefined)", "hERG (Kv11.1, KCNH2) (Homo sapiens, UniProt Q12809)", "%", 40),
    ("CN1c2ccccc2N(C)C1c1ccc2c(c1)OCO2", "hERG (Kv11.1, KCNH2) (Homo sapiens, UniProt Q12809)", "%", -1),
]

**Q:** Param readout= inhibition at 1.1 µM; system= hERG (Kv11.1, KCNH2) (Homo sapiens, UniProt Q12809); entry= COc1ccc(OC)c(C2C3=C(CC(C)(C)CC3=O)N(c3ccc(Cl)c(Cl)c3)C3=C2C(=O)CC(C)(C)C3)c1 ; returns value.
**A:** 21

**Q:** Param readout= inhibition at 1.1 µM; system= hERG (Kv11.1, KCNH2) (Homo sapiens, UniProt Q12809); entry= CCCCCCC(O)(c1ccc(F)cc1)C(CN1CCOCC1)c1ccccc1 (centres undefined) ; returns value.
**A:** 0

**Q:** Param readout= inhibition at 1.1 µM; system= hERG (Kv11.1, KCNH2) (Homo sapiens, UniProt Q12809); entry= CC(C)(C)c1ccc(C(=O)Nc2nc3ccccc3s2)cc1 ; returns value.
**A:** -3
